The values you see were collected from patent US8497278B2.

# assayed.system: α2 subtype containing GABA-A receptors (Homo sapiens, UniProt P18507+P47869)
# Construct: expressed in transfected cells; host or cells: Xenopus laevis oocytes, cRNA injected
# Sequence (P47869 29-451): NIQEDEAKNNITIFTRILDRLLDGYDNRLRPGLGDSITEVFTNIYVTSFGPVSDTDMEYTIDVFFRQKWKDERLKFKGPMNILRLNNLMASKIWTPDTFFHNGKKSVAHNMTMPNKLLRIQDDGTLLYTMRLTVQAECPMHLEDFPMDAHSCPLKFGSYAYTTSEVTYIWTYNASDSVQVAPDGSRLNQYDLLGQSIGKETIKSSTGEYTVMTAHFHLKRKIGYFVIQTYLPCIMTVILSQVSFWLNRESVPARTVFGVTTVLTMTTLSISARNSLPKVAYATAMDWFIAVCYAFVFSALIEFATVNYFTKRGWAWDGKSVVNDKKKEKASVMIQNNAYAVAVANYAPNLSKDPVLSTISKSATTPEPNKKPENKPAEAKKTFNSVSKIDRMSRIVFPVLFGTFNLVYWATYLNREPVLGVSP
# Sequence (P28472 26-473 partner): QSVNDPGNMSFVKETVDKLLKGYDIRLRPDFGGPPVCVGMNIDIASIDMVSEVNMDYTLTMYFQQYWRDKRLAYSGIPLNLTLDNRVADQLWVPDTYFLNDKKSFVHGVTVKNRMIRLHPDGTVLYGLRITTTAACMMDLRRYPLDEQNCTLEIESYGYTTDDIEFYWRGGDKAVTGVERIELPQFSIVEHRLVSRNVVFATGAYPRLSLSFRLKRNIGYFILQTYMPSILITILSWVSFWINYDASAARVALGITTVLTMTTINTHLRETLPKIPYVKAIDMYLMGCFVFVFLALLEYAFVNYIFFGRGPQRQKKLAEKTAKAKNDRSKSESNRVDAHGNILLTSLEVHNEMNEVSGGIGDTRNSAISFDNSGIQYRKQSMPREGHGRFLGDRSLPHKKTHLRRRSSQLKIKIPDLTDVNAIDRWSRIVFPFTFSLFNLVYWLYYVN
# Sequence (P18507 40-475): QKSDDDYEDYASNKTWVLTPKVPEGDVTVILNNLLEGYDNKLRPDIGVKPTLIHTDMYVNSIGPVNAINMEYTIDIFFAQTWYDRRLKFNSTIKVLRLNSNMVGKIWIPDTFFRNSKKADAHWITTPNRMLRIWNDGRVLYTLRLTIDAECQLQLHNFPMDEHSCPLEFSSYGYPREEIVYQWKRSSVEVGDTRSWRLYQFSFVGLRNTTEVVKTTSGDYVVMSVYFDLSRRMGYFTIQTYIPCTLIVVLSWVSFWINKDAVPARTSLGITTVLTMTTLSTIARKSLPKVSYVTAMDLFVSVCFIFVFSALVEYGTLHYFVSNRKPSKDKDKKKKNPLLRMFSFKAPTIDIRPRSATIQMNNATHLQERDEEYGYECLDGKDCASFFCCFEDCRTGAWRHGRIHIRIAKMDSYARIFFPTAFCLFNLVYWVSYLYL
# test.protocol: Two-electrode voltage clamp electrophysiology in Xenopus oocytes, potentiation of GABA EC20 response, α2
# Format: cell-based
# condition.context: 100 nM compound, read-out: Percentage of potentiation alpha2
# Protocol: Electrophysiology protocol: Oocytes were prepared from adult female Xenopus laevis frogs. cRNA encoding human α1, α2, α3, α5, β3 and γ2L GABAA receptor subunits was injected into the cytoplasm of stage 5 or 6 oocytes using the Robocyte Robot (Multi Channel Systems, Reutlingen, Germany). Two-electrode voltage clamp recordings were made in 96-well plates using the Robocyte Robot. […]
reported.metric: activation at 0.1 µM

Known activation at 0.1 µM results, listed for orientation:
entry_smiles=CCOC(=O)c1cc(C)n(Cc2c(-c3ccc(Cl)cc3)nc3ccccn23)n1 reported_metric="activation at 0.1 µM" measurement="≥ 50%"
entry_smiles=Cc1nnc(Cc2c(-c3ccc(Cl)cc3)nc3ccccn23)[nH]1 reported_metric="activation at 0.1 µM" measurement="≥ 50%"
entry_smiles=O=C(NO)c1nc(Cc2c(-c3ccc(Cl)cc3)nc3ccc(F)cn23)no1 reported_metric="activation at 0.1 µM" measurement="≥ 50%"

# lookup: activation at 0.1 µM of "COc1ccc(NCc2c(-c3ccccc3)nc3ccc(Cl)cn23)nn1"
10 to 50%

Then "Cc1cccc(=O)n1Cc1c(-c2ccc(Cl)cc2)nc2ccc(F)cn12" ?
≥ 50%

Then "CN(O)C(=O)c1nc(Cc2c(-c3ccc(F)cc3)nc3ccc(F)cn23)no1" ?
10 to 50%
